Test System: turkey β3C-adrenoceptor (tβ3C) (Meleagris gallopavo)
Test Details: CRE-SPAP production, CHO tβ3C cells
Type: cell-based
Condition Context: Log KD ICI118551, vs agonist fenoterol, CRE-SPAP, CHO tβ3C cells
Measurement Name: pKd
Numbers only, as −log10 of the molar value.

Inquiry: Answer with the recorded pKd of Cc1ccc(OCC(O)C(C)NC(C)C)c2c1CCC2 (stereo not shown) [ICI118551] only.
Reply text: 9.34

====

Test System: turkey β3C-adrenoceptor (tβ3C) (Meleagris gallopavo, UniProt A0A803YLI8)
Sequence (A0A803YLI8 entry or part of it): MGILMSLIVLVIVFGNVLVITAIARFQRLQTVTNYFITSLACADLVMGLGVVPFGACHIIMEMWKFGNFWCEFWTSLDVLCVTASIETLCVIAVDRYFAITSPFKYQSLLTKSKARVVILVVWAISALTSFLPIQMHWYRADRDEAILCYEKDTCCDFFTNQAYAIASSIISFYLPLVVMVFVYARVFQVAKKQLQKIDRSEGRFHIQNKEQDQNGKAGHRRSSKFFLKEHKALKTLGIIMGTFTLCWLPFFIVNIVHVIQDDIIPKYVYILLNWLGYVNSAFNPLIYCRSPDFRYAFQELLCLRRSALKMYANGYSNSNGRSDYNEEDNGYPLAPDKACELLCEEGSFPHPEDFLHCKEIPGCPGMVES
Test Details: CRE-SPAP production, CHO tβ3C cells
Type: cell-based
Condition Context: Log KD ICI118551, vs agonist CGP12177, CRE-SPAP, CHO tβ3C cells
Measurement Name: Kd

Inquiry: Kindly indicate its recorded Kd. Item: Cc1ccc(OCC(O)C(C)NC(C)C)c2c1CCC2 (stereo not shown) [ICI118551]
Reply text: 0.316 nM

====

Field: pEC50. Provide a value for each of the molecules that follow.
Test System: turkey β4C-adrenoceptor (tβ4C) (Meleagris gallopavo, UniProt P43141)
Construct: expressed in transfected cells
Sequence (P43141 whole entry): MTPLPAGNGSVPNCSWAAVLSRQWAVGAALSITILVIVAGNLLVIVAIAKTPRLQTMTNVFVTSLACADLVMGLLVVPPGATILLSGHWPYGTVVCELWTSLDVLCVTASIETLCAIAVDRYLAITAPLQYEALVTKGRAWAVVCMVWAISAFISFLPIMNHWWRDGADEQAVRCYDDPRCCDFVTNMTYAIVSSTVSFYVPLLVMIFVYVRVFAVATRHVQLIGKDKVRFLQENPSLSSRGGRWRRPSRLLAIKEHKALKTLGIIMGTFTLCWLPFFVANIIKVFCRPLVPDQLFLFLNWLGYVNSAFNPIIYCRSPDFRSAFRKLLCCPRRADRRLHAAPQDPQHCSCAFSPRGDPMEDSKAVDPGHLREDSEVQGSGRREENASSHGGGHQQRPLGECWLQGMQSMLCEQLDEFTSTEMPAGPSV
Test Details: cell-based
Format: cell-based
Numbers only, as −log10 of the molar value.

Respectfully, I request pEC50 for each entry included below.
1. COc1ccc(CC(C)NCC(O)c2ccc(O)c(NC=O)c2)cc1 (stereo not shown) [Formoterol]
2. CC(C)(C)NCC(O)c1cc(Cl)c(N)c(Cl)c1 (stereo not shown) [Clenbuterol]
3. CC(Cc1ccc(O)cc1)NCC(O)c1cc(O)cc(O)c1 (stereo not shown) [Fenoterol]
4. OCc1cc(C(O)CNCCCCCCOCCCCc2ccccc2)ccc1O (stereo not shown) [Salmeterol]

Reply text:
[9.78, 7.39, 8.07, 8.40]

====

Can you tell me pKd for the items I'm about to list?
Test System: turkey β3C-adrenoceptor (tβ3C) (Meleagris gallopavo)
Test Details: 3H-CGP12177 whole cell binding, CHO tβ3C cells
Numbers only, as −log10 of the molar value.

[[record]]
compound = "CNC[C@H](O)c1ccc(O)c(O)c1 [Adrenaline]"
test_system = "turkey β3C-adrenoceptor (tβ3C) (Meleagris gallopavo)"
reported_value = 5.81

[[record]]
compound = "CC(C)NCC(O)COc1cccc2[nH]ccc12 (stereo not shown) [Pindolol]"
test_system = "turkey β3C-adrenoceptor (tβ3C) (Meleagris gallopavo)"
reported_value = 8.71


# return pKd for each item in the list
1. C=CCc1ccccc1OCC(O)CNC(C)C (stereo not shown) [Alprenolol]
2. COc1ccc(OC)c(C(O)C(C)NC(C)(C)C)c1 (stereo not shown) [Butoxamine]
3. Cc1ccc(OCC(O)C(C)NC(C)C)c2c1CCC2 (stereo not shown) [ICI118551]
4. CC(Cc1ccc(O)cc1)NCC(O)c1cc(O)cc(O)c1 (stereo not shown) [Fenoterol]
5. COCCc1ccc(OCC(O)CNC(C)C)cc1 (stereo not shown) [Metoprolol]

Reply text:
1: 8.44; 2: 5.99; 3: 8.93; 4: 6.69; 5: 5.96

# batch size: 3; output pKd per entry
1. O=C(NCCNCC(O)COc1ccc(O)cc1)N1CCOCC1 (stereo not shown) [Xamoterol]
2. Cn1cc(C(F)(F)F)nc1-c1ccc(OCC(O)CNCCOc2ccc(O)c(C(N)=O)c2)cc1 (stereo not shown) [CGP20712A]
3. NC[C@H](O)c1ccc(O)c(O)c1 [Noradrenaline]

Reply text:
1. 5.64
2. 5.40
3. 4.94
